These data points were gathered from ChEMBL document CHEMBL1201862.

Listed here are molecules together with their documented GI50.
tested on: K562; assay: NCI tumour cell line growth inhibition, 48 h
Active and inactive are the calls of the source. No stated cut-off is given here; in the data, active = GI50 up to about 1.1 µM and inactive = higher.

Below are worked cases with known answers.
{"MOLECULE": "N#CSC1CCCCNC1=O (configuration not stated)", "GI50": "18.2 µM (inactive)"}
{"MOLECULE": "CC(=O)OC(/C=C/c1ccccc1)=C(OC(C)C)/C1=C(\\c2ccccc2)SCCCSC1=O", "GI50": "> 100 µM (inactive)"}
{"MOLECULE": "N=C(N)SC(c1ccccc1)c1ccccc1", "GI50": "22.4 µM (inactive)"}
{"MOLECULE": "CC(C)(C)C1=C(Br)C(Br)(C(C)(C)C)OP1(=O)c1ccccc1 (configuration not stated)", "GI50": "> 100 µM (inactive)"}
{"MOLECULE": "COc1cc(COC(=O)N2CC=CC2C(=O)O)c([N+](=O)[O-])cc1OC (configuration not stated)", "GI50": "> 100 µM (inactive)"}
{"MOLECULE": "Cc1cc2c(cc1C)[n+]([O-])c(C(=O)/C=C/c1ccccc1[N+](=O)[O-])c(C)[n+]2[O-]", "GI50": "> 100 µM (inactive)"}
{"MOLECULE": "O=C(Nc1ccccc1)OC1OC(COC(=O)c2ccccc2)C(OC(=O)c2ccccc2)C1OS(=O)(=O)c1ccc([N+](=O)[O-])cc1 (configuration not stated)", "GI50": "> 100 µM (inactive)"}
{"MOLECULE": "CN(C)CCOc1ccc(-c2c(Oc3ccc(Cl)cc3)c(=O)oc3ccccc23)cc1", "GI50": "3.84 µM (inactive)"}
{"MOLECULE": "OCC(O)C(O)C(O)C(O)c1nc2cc(Cl)ccc2[nH]1 (configuration not stated)", "GI50": "> 100 µM (inactive)"}
{"MOLECULE": "N#CC1=C(O)NC(O)=C(C#N)C1c1c(Cl)cccc1Cl", "GI50": "> 100 µM (inactive)"}

Kindly note: K562, COc1cc2c(=O)cnoc2cc1O , GI50 value reported: > 100 µM (inactive)

Kindly note: K562, O=S1(=O)CCCS(=O)(=O)C(c2ccccc2)=C1c1ccccc1 , GI50 value reported: 31.9 µM (inactive)

Kindly note: K562, CC(=O)NC1=CC(=O)c2cc(C)cc(O)c2C1=O , GI50 value reported: 3.74 µM (inactive)

Kindly note: K562, CC(=O)Oc1ccc2c(c1)oc1c3ccc(OC(C)=O)cc3n(C)c(=O)c21 , GI50 value reported: 30.5 µM (inactive)

Kindly note: K562, O=C(c1cc(Br)ccc1O)c1cc(Br)ccc1O , GI50 value reported: 15.3 µM (inactive)

Kindly note: K562, O=C(O)c1ccc(Nc2c3ccccc3nc3ccccc23)cc1 , GI50 value reported: 76.2 µM (inactive)

Kindly note: K562, CCNc1nc(N)c(C(=O)c2ccc(Cl)cc2)s1 , GI50 value reported: 29.3 µM (inactive)

###

tested on: NCI/ADR-RES; experiment: NCI tumour cell line growth inhibition, 48 h
Activity calls are given as the source filed them. Cut-off read from the data, not from the text of the source: active = GI50 up to about 1.1 µM and inactive = higher.
Allowed answers: active, inactive

Would you please look over these solved cases?
{"COMPOUND": "Cc1cc2c(c3oc(C(O)(CO)C4CO4)cc(=O)c13)C(=O)c1c(O)cccc1C2=O (stereo unspecified)", "CATEGORY": "active"}
{"COMPOUND": "O=C1/C(=C\\c2cccc(Oc3ccccc3)c2)SC(c2ccccc2)N1c1ccccc1Cl (stereo unspecified)", "CATEGORY": "inactive"}

Consider the additional compound presented here.
Look up the recorded call for CC1C[C@]2(C)C(=O)N(c3ccccc3)C(=N)[C@@H]2N(C)c2ccccc21 (stereo partly specified) in this test.
inactive

###

tested on: BT-549; assay: NCI tumour cell line growth inhibition, 48 h
The source made the active and inactive calls. Cut-off read from the data, not from the text of the source: active = GI50 up to about 1.1 µM and inactive = higher.
MEASURED_ATTRIBUTE: GI50

Below are worked cases with known answers.
{"COMPOUND": "CSc1nc(Nc2ccccc2Cl)c2c(N)nn(C)c2n1", "GI50": "> 100 µM (inactive)"}
{"COMPOUND": "CN1C(=O)C23CCCCC2CC1(c1ccccc1)S3 (stereo unspecified)", "GI50": "99.3 µM (inactive)"}
{"COMPOUND": "O=c1c(Cc2ccc(Cl)cc2)nnc2sc(-c3ccc(-c4ccc(Cl)cc4Cl)o3)nn12", "GI50": "> 100 µM (inactive)"}
{"COMPOUND": "CCC(C)c1cnc(CC(C)C)c(=O)[nH]1 (stereo unspecified)", "GI50": "> 100 µM (inactive)"}
{"COMPOUND": "N#CSC1CCCCNC1=O (stereo unspecified)", "GI50": "5.93 µM (inactive)"}

Now consider the entry below.
Reported GI50 ( CCCCN(C(=O)c1ccccc1)C1CCC(=O)c2[nH]c3ccccc3c21 (stereo unspecified) ) = 36.9 µM (inactive)

###

test system: A498; experiment: NCI tumour cell line growth inhibition, 48 h
Activity calls are given as the source filed them. Cut-off read from the data, not from the text of the source: active = GI50 up to about 1.1 µM and inactive = higher.
Listed here are compounds together with their documented GI50.

Below are worked cases with known answers.
{"COMPOUND": "Cc1nc2cccc([N+](=O)[O-])c2n1CCCN(C)C", "ASSAY_SYSTEM": "A498", "GI50": "> 100 µM (inactive)"}
{"COMPOUND": "O=C1C(Cl)=C(OCCCCl)C(=O)c2c(O)ccc(O)c21", "ASSAY_SYSTEM": "A498", "GI50": "15.2 µM (inactive)"}
{"COMPOUND": "CCSc1cc2c(cc1O)CC[C@@H]1[C@@H]2CC[C@]2(C)[C@@H](O)CC[C@@H]12", "ASSAY_SYSTEM": "A498", "GI50": "15.6 µM (inactive)"}

Reported GI50 ( O=c1c2cccnc2[nH]c2ccc3scnc3c12 ) = 7.62 µM (inactive)

Reported GI50 ( N#Cc1c(-c2ccccc2)c(C#N)c(=S)n(C2OCC(O)C(O)C2O)c1N (stereo unspecified) ) = > 100 µM (inactive)

Reported GI50 ( COc1ccccc1-c1cc(O)c2cc3c(cc2n1)OCO3 ) = 11.9 µM (inactive)

###

Listed here are molecules together with their documented GI50.
system: HCT-15; assay: NCI tumour cell line growth inhibition, 48 h
The reply should contain only the number, in µM.

Below are worked cases with known answers.
{"MOLECULE": "CC1=CP(=O)(c2c(C(C)C)cc(C(C)C)cc2C(C)C)CCC1Cl (stereo not given)", "OBSERVED_RESULT": 16}
{"MOLECULE": "CC(=O)/C(=C\\c1ccccc1O)C(=O)Nc1ccccc1C", "OBSERVED_RESULT": 14.1}

Reported GI50 ( COC(=O)CCC(=O)N1C/C(=C\c2ccccc2)C(=O)/C(=C/c2ccccc2)C1 ) = 0.432

###

system: ACHN; assay: NCI tumour cell line growth inhibition, 48 h
Active and inactive are the calls of the source. Cut-off read from the data, not from the text of the source: active = GI50 up to about 1.1 µM and inactive = higher.
Allowed answers: active, inactive

{"COMPOUND": "COC(=O)C1(O)C(c2ccccc2)NC2(C)CCCC21 (centres undefined)", "CATEGORY": "inactive"}
{"COMPOUND": "N#CCCC(CCC#N)(CCC#N)NO", "CATEGORY": "inactive"}
{"COMPOUND": "N#Cc1cc(-c2nc3cc(F)ccc3s2)ccc1N", "CATEGORY": "inactive"}
{"COMPOUND": "COc1c(-c2ccc3c(c2)OCO3)oc2cc3c(c(OC)c2c1=O)OCO3", "CATEGORY": "inactive"}
{"COMPOUND": "O=C(Nc1ccccc1)OC1OC(COC(=O)c2ccccc2)C(OC(=O)c2ccccc2)C1OS(=O)(=O)c1ccc([N+](=O)[O-])cc1 (centres undefined)", "CATEGORY": "inactive"}
{"COMPOUND": "C[C@]12CCC(=O)C=C1CC[C@@H]1C2CC[C@]2(C)c3nn(-c4ccccc4)nc3CC12 (some centres undefined)", "CATEGORY": "inactive"}

Look up the recorded call for Cc1cccc(NC(=O)/C(=N\NC(C)(C)C)C2NC(=S)NC2=O)c1C (centres undefined) in this test.
inactive

Look up the recorded call for C/C(=N\NC(=O)CC(=O)N(C(=O)c1ccc(Cl)cc1)c1ccc(C)cc1)c1ccccc1O in this test.
inactive

Look up the recorded call for C[C@]12CC/C(=N\O)C=C1CC[C@@H]1[C@@H]2CC[C@]2(C)C(=N/O)/C(=C/c3cccnc3)C[C@@H]12 in this test.
inactive

Look up the recorded call for CCC(C)c1cnc(CC(C)C)c(=O)[nH]1 (centres undefined) in this test.
inactive

Look up the recorded call for Cc1cc2oc(C)c(S(=O)(=O)NC(=O)Nc3ccc(Cl)cc3)c(=O)c2c(=O)o1 in this test.
inactive

###

test system: SK-MEL-28; assay: NCI tumour cell line growth inhibition, 48 h
The source made the active and inactive calls. Rule as the data show it: active = GI50 up to about 1.1 µM and inactive = higher.
MEASURED_ATTRIBUTE: GI50

Below are worked cases with known answers.
{"COMPOUND": "COc1cc2cccc(NC(=O)c3cc(OC)c(OC)c(OC)c3Br)c2cc1OC", "OBSERVED_RESULT": "16.1 µM (inactive)"}
{"COMPOUND": "CCOc1ccc(/N=C/c2ccc3ccccc3n2)cc1", "OBSERVED_RESULT": "> 100 µM (inactive)"}
{"COMPOUND": "COc1ccccc1-n1c(NN)nc2ccc(Br)cc2c1=O", "OBSERVED_RESULT": "40.3 µM (inactive)"}
{"COMPOUND": "CCOC(=O)c1cn(-c2ccccc2)c(=S)n2c1nc1ccccc12", "OBSERVED_RESULT": "28.2 µM (inactive)"}

Kindly note: SK-MEL-28, O=C1c2cc(Cl)ccc2N=C(NCCCl)C2CSCN12 (stereo unspecified) , GI50 value reported: > 100 µM (inactive)

Kindly note: SK-MEL-28, Oc1c(Br)ccc2cccnc12 , GI50 value reported: 20.5 µM (inactive)

Kindly note: SK-MEL-28, N#CC(=S)Nc1ccc(Cl)c(Cl)c1 , GI50 value reported: 30.3 µM (inactive)

Kindly note: SK-MEL-28, CN(C)CCOc1ccc(-c2c(Oc3ccc(Cl)cc3)c(=O)oc3ccccc23)cc1 , GI50 value reported: 3.27 µM (inactive)

Kindly note: SK-MEL-28, CCN1CC2(C)CC[C@@H](OC)C34[C@@H]2[C@H](OC(C)=O)C2(OCO[C@@]25C[C@H](OC)C2C[C@]3(O)[C@@H]5[C@H]2O)[C@H]14 , GI50 value reported: > 100 µM (inactive)

Kindly note: SK-MEL-28, CSc1ncnc2c1ncn2CCC#N , GI50 value reported: > 100 µM (inactive)

Kindly note: SK-MEL-28, CN(C)CCOc1ccc2c(c1)C/C(=C/c1ncc([N+](=O)[O-])n1C)C2=O , GI50 value reported: 17.6 µM (inactive)
